Test system: OVCAR-8 ovarian
Test: NCI-60 one-dose screen, 48 h (100 = growth as untreated, 0 = no growth, -100 = all killed)
Settings: 10 µM unless noted
This is part of a sample that, as a whole, favours compounds with a hit. Of some 83,000 tested, about 20% had one in any assay. The source made the active and inactive calls. How the source made its calls: active means growth percent below 10; inactive means the rest.
readoutName: growth

Query string: Data request, read-out growth, for `Clc1nc(Cl)c2ncn(CC3(Cn4cnc5c(Cl)nc(Cl)nc54)COC3)c2n1`
Result string: -83.7% (active)

Query string: For the molecule `CC(=O)Nc1ccc(S(=O)(=O)NC2CCCCC2)cc1` , what growth is on record?
Result string: 101% (inactive)

Query string: Fill in the blank: the reported growth of `CS(=O)(=O)OCCN(CCOS(C)(=O)=O)c1ccc(/C=N/Nc2ccc([N+](=O)[O-])cc2[N+](=O)[O-])cc1` is ____.
Result string: 76.4% (inactive)

Query string: Entry `O=C(Nc1ccc2cc3ccc(NC(=O)NC4CCCCC4)cc3nc2c1)NC1CCCCC1` : reported growth = ?
Result string: 93.4% (inactive)

---

Tested on: HOP-92 NSCLC
Test: NCI-60 one-dose screen, 48 h (100 = growth as untreated, 0 = no growth, -100 = all killed)
Settings: 10 µM unless noted
Experimental: Growth inhibition of the HOP-92 human Non-Small Cell Lung tumor cell line is measured as a screen for anti-cancer activity. Cells are grown in 96 well plates and exposed to the test compound for 48 hours. Compounds are tested at a single concentration, which is 10^-5 M for most compounds. The reported endpoint is percent growth (GI% or GIPRCNT), where numbers from 0 - 100% represent growth inhibition, and numbers from -100% - 0 represent cell death. […]
Compounds without any hit were thinned out: in the full panel of roughly 83,000, 20% have a hit.
Assignment: determine reported growth for the given compounds.
# unit: % | format: bare number

Query string: Param item = `Cc1ccccc1-c1cc(Cc2ccc(F)cc2)c(=O)[nH]n1` ; retrieve measured growth.
Result string: 99.8

Query string: Suppose we examine the compound `CNC(=O)c1c(NC(=O)c2ccc(C(C)C)cc2)sc2c(CN(C)C)c(O)ccc12` ; what growth value has been reported?
Result string: 64.7

Query string: For `CS(=O)(=O)Nc1cc(-c2ccc3ncnc(Nc4ccc5[nH]ncc5c4)c3c2)cnc1Cl` , what is its reported growth?
Result string: 0.913

Query string: Query: growth; subject: COc1ccc(C2CC(c3cccc(Nc4ccncc4)c3)=NN2c2ccccc2)cc1 (stereo not drawn)
Result string: 47.6

Query string: Return reported growth; argument: `CC(=O)[C@@H]1CC[C@]2(C(N)=O)CC[C@]3(C)[C@H](CC[C@@H]4[C@@]5(C)CCC(=O)C(C)(C)[C@@H]5CC[C@]43C)[C@@H]12`
Result string: 103

Query string: Which growth value belongs to `CCCCCCOc1ccc(C(=N)N(CCCC)CCCC)c2ccccc12` ?
Result string: -81.7

Query string: Look up growth for this compound: `O=S(=O)(NCCNc1nccc(-c2c(-c3ccc(F)c(O)c3)nc3sccn23)n1)c1ccccc1`
Result string: 63.9

Query string: Which measured growth value corresponds to `Cc1cc2cc3cc(C)c(N)cc3[n+](C)c2cc1N` ?
Result string: -11.9

Query string: Quick one: growth of `CN(C)C(=O)c1cc2cnc(Nc3ccc(-c4csc5c(=O)cc(N6CCOCC6)oc45)cc3)nc2n1C1CCCC1` ?
Result string: -3.68

Query string: Given the compound `O=S(=O)(NCCNc1nccc(-c2c(-c3ccc(F)c(O)c3)nc3occn23)n1)c1ccccc1` , what is its reported growth?
Result string: 43.7

Query string: Value lookup for growth; key = CS(=O)(=O)c1ccc(-c2cc3c(oc2=O)-c2ccccc2OC3O)cc1 (stereo not drawn)
Result string: 38.1

Query string: Which value of growth has been reported for `O=C(Nc1cccc(C2=NCCN2)c1)c1ccc(OCCCOc2ccc(C(=O)Nc3cccc(C4=NCCN4)c3)cc2)cc1` in the records?
Result string: 18.8

Query string: Consider the compound CC(c1ccccc1)n1ccnc1CO (stereo not drawn) and give its measured growth.
Result string: 66.5

Query string: Using the record for CC(C)Cc1ccc(C(C)C(=O)NCc2c[nH]c3ccc(Cl)cc23)cc1 (stereo not drawn) , report its growth.
Result string: 79.8

Query string: // query growth value for entry `COc1ccc(NC(=O)c2sc3nc(C)c(C(=O)c4ccc(OC)cc4)cc3c2N)cc1`
Result string: 67.3

Query string: Entry under review: `CC(=O)c1c(C)[nH]c(-c2nc3ccc(N4CCN(C)CC4)cc3[nH]2)c1-c1ccccc1` . Reported growth?
Result string: 29.8

Query string: Would you mind telling me what growth value was observed for `CSc1nnc2c(=O)n(C)c(=O)n(C)c2n1` ?
Result string: 68.1

Query string: I am curious: what growth value has been reported for `COc1ccc(/C=C2\COc3ccc(-c4ccccc4)cc3C2=O)cc1O` ?
Result string: -1.71
